Experiment: protein stability index of a GFP-peptide fusion (yeast GPS) (PSI 1-4); higher = more stable; sorted into four equal gates, so the index is relative within each strain
Conditions: san1∆
Each entry below carries its reported protein stability index.
measure name: protein stability index

chain	value observed
TLKLQDTRITPSKVSKI [PRE6]	2.34
FEDSMQFKKLTHAQRTG [PRP8]	3.07
QLVTREAQIKDWVENEL [FAS2]	3.39
GYILEGEELAFYLRRLT [RPS8A]	1.24
KYLYLRAVGGEVGASAA [RPL12A]	1.64
IPKLKPAPINSLSRDFV [SNU114]	2.68
LATGPNLTSEIEDLRAD [YOR098C/NUP1]	3.12
QQREAVRQLYKGKKYQP [RPL35A]	2.94
HGAASFLKERLMEASDA [RPB2]	1.1
ITKDHKVLARQQLQVLA [FAS2]	1.82
ANVNASAMPAPYMPYYY [DSN1]	2.79
EAEIECFDSTTGRDAGF [RRP40]	3.28
TEYGRKYNVNISALTQT [PRP8]	2.94
VRHGRAGATTSRFIPLK [RPS15]	2.89
